# Tested on: HL-60
# test: NCI tumour cell line growth inhibition, 48 h
Activity calls are given as the source filed them. Rule as the data show it: active = GI50 up to about 1.1 µM and inactive = higher.
API: response.call in true = active, false = inactive

The examples below pair each entry with its known result.
Cc1nc2c(n1CCO)C(=O)c1ccccc1C2=O    false
Cc1ccc(N2C(=O)C3CSCN3C2=O)cc1 (centres undefined)    false
Cc1ccc(Nc2nc3c(s2)C(=O)c2ccccc2C3=O)c(C)c1    false
O=C(N/N=C/c1cc(Br)cc(Br)c1O)c1ccccc1O    true
COC(=O)c1cc(-c2cccn2C)c2c(c1C(=O)OC)c1ccccc1n2C    false
COc1cc([C@H]2c3[nH]c4ccccc4c3C[C@H]3COC(=O)N32)cc(OC)c1O    true

Prompt line: Fill in: this test's call for CCOC(=O)N1CCN(P(=O)(Nc2ccc3[nH]c(NC(=O)OC)nc3c2)Oc2ccccc2)CC1 (centres undefined) is ___
Response line: false

Prompt line: Fill in: this test's call for COc1cc2c(cc1O)CCN[C@@]21CS[C@H]2c3c(OC(C)=O)c(C)c4c(c3C(COC1=O)N1C2C2c3c(cc(C)c(OC)c3O)CC([C@@H]1O)N2C)OCO4 (some centres undefined) is ___
Response line: true

Prompt line: Fill in: this test's call for CCN(CC)CC1CCCCN1CC(=O)N1c2ccccc2NC(=O)CC1C (centres undefined) is ___
Response line: false

---

# Test system: Malme-3M
# test: NCI tumour cell line growth inhibition, 48 h
Activity calls are given as the source filed them. Rule as the data show it: active = GI50 up to about 1.1 µM and inactive = higher.
Below is a list of entries, each paired with its recorded GI50 value.

// solved cases for GI50 follow
S=c1[nH]c2c(Cl)c(Cl)c(Cl)c(Cl)c2[nH]1    14.9 µM (inactive)
Cc1cccc(NC(=O)/C(=N\N)C(c2cnc3ccc([N+](=O)[O-])cc3n2)[N+](=O)[O-])c1C (centres undefined)    > 100 µM (inactive)

Prompt line: Which GI50 is listed for Cc1ccc(NC(=O)CCC/C(CC(=O)c2ccc(Br)cc2)=N/NC(=O)CC#N)cc1 ?
Response line: > 100 µM (inactive)

Prompt line: Which GI50 is listed for O=C(O)CNC(=O)c1ccccc1O [SALICYLURIC ACID] ?
Response line: > 100 µM (inactive)

Prompt line: Which GI50 is listed for COc1cc([C@H]2c3[nH]c4ccccc4c3C[C@H]3COC(=O)N32)cc(OC)c1O ?
Response line: 3.95 µM (inactive)

Prompt line: Which GI50 is listed for CCCC[C@H]1CCN2C[C@@H](O)[C@@H](O)[C@H]2[C@@H]1O ?
Response line: > 100 µM (inactive)

Prompt line: Which GI50 is listed for Nc1ccc(C(=O)CC2(O)C(=O)Nc3ccccc32)cc1 (centres undefined) ?
Response line: > 100 µM (inactive)

Prompt line: Which GI50 is listed for CCN1CCC(O)(C(C(=O)O)c2ccccc2)CC1 (centres undefined) ?
Response line: > 100 µM (inactive)

Prompt line: Which GI50 is listed for CCCCCCCCCCCCCCCCCCN(C)C(COC)COP(=O)([O-])OCC[N+](C)(C)C (centres undefined) ?
Response line: 14.9 µM (inactive)

---

Below is a list of entries, each paired with its recorded GI50 value.
# Tested on: NCI-H23
# test: NCI tumour cell line growth inhibition, 48 h
The source made the active and inactive calls. Rule as the data show it: active = GI50 up to about 1.1 µM and inactive = higher.

// solved cases for GI50 follow
CC(=O)OC1CC2C(C)(C)C(=O)C=C[C@]2(C)C2CCC3(C)C(c4ccoc4)[C@@H](O)[C@H]4O[C@]43[C@]12C (some centres undefined)    18.1 µM (inactive)
[N-]=[N+]=CC(=O)OC1CCc2ccccc21 (centres undefined)    82.8 µM (inactive)

Prompt line: Which GI50 is listed for O=C(C1OC1c1ccc(F)cc1)C12CC3CC(CC(C3)C1)C2 (centres undefined) ?
Response line: 22.1 µM (inactive)

Prompt line: Which GI50 is listed for COc1ccc(CN2C(=O)[C@@H]3Cc4c(OC)c(C)c(OC)c(OC)c4[C@H](/C2=C\c2cc(OC)c(OC)c(C)c2OC)N3C(=O)OC(C)C)cc1 ?
Response line: 66.4 µM (inactive)

---

# Tested on: OVCAR-3
# test: NCI tumour cell line growth inhibition, 48 h
The source made the active and inactive calls. Cut-off read from the data, not from the text of the source: active = GI50 up to about 1.1 µM and inactive = higher.
readout: GI50

// solved cases for GI50 follow
COc1ccc2cc3[n+](cc2c1OC)CCc1cc(O)c(O)cc1-3    > 100 µM (inactive)
C=C1C[C@@H](O)[C@@H](Br)C(C)(C)[C@@]12C=CC(=O)CC2    > 100 µM (inactive)
COc1ccc2nc3ccccc3c(NCCCCCCN(C)CCCl)c2c1    1.19 µM (inactive)
CCCCCCCCCCCCCCCC(=O)OCC1CCCN2CCCCC12 (stereo unspecified)    > 100 µM (inactive)
CCOC(=O)c1cc2c([nH]1)c(OC(C)=O)cc1c2ccn1Cc1ccccc1    > 100 µM (inactive)
O=C(/C=C/c1ccc(OCc2ccccc2)cc1)NCc1ccc(C(=O)NCCc2c[nH]c3ccccc23)cc1    29 µM (inactive)

Prompt line: Which GI50 is listed for Cn1ccnc1CCc1ccc(Cl)cc1Cl ?
Response line: > 100 µM (inactive)

Prompt line: Which GI50 is listed for Oc1ccc2ccccc2c1/N=N/c1ccccc1 ?
Response line: 51.6 µM (inactive)

Prompt line: Which GI50 is listed for O=C(CC1(O)C(=O)Nc2c(Cl)cc(Cl)cc21)c1ccc(Br)cc1 (stereo unspecified) ?
Response line: 14.1 µM (inactive)

Prompt line: Which GI50 is listed for CCCc1cc(OC(=O)c2c(O)cc(OC)cc2CCC)cc(O)c1C(=O)O ?
Response line: 20.6 µM (inactive)

Prompt line: Which GI50 is listed for N#CC(/C(CCC(=O)Nc1ccc(Cl)cc1)=N/NC(=O)c1cc2ccccc2cc1O)c1ccccc1 (stereo unspecified) ?
Response line: 30.5 µM (inactive)

---

# Tested on: DMS-273
# test: NCI tumour cell line growth inhibition, 48 h
Structures can show the parent of a compound that is named as a salt. Active and inactive are the calls of the source. Rule as the data show it: active = GI50 up to about 1.1 µM and inactive = higher.
API: response.call in Y for active, N for inactive

The examples below pair each entry with its known result.
COc1ccc2c(c1)Oc1cc(O)ccc1[C@H]2c1ccccc1C(=O)NC(C)c1ccccc1 (stereo partly drawn)    N
COc1ccc2nc3ccccc3c(NCCCCCCN(C)CCCl)c2c1    Y

Prompt line: Fill in: this test's call for C/N=C(\N=c1/ss/c(=N\C)n1C)N(C)C.[O-][Cl+3]([O-])([O-])O is ___
Response line: N

Prompt line: Fill in: this test's call for CC(=O)OCC(OC(C)=O)C(OC(C)=O)C(OC(C)=O)C(=O)CNn1c(-c2ccccc2Cl)nc2ccccc2c1=O (stereo not drawn) is ___
Response line: N

Prompt line: Fill in: this test's call for CC(NC(C)(C)C)C(=O)c1cccc(Cl)c1 (stereo not drawn) [BUPROPION HYDROCHLORIDE] is ___
Response line: N

---

Below is a list of entries, each paired with its recorded GI50 value.
# Tested on: NCI-H522
# test: NCI tumour cell line growth inhibition, 48 h
Activity calls are given as the source filed them. No stated cut-off is given here; in the data, active = GI50 up to about 1.1 µM and inactive = higher.

Prompt line: Can you look up GI50 on NCI-H522 for Nc1c(C(=O)O)nnc2cc(Cl)c(Cl)cc12 ?
Response line: > 100 µM (inactive)

Prompt line: Can you look up GI50 on NCI-H522 for CN(C)Cc1cc(C(=O)/C=C/c2ccc(Cl)cc2)cc(CN(C)C)c1O ?
Response line: 3.24 µM (inactive)

Prompt line: Can you look up GI50 on NCI-H522 for CC1(C)N=C(N)N=C(N)N1c1cccc(OCCOc2ccc([N+](=O)[O-])cc2)c1 ?
Response line: 3.79 µM (inactive)

Prompt line: Can you look up GI50 on NCI-H522 for COC(=O)N/N=C(\c1ccccc1)c1ccc(OC)cc1 ?
Response line: > 100 µM (inactive)

Prompt line: Can you look up GI50 on NCI-H522 for O=C(O)CNC(=O)c1ccccc1O [SALICYLURIC ACID] ?
Response line: > 100 µM (inactive)

Prompt line: Can you look up GI50 on NCI-H522 for O=C(O)COc1cccc2ccccc(=O)c12 ?
Response line: > 100 µM (inactive)

---

# System: SK-MEL-28
# test: NCI tumour cell line growth inhibition, 48 h
The source made the active and inactive calls. No stated cut-off is given here; in the data, active = GI50 up to about 1.1 µM and inactive = higher.
API: response.call in active, inactive

Oc1ccc(Cc2nccc3cc(O)c(O)cc23)cc1O    inactive
C[C@]12CCC(=O)C=C1CC[C@@H]1[C@@H]2C(=O)C[C@@]2(C)[C@H]1CC[C@]2(O)C(=O)CO    inactive
CCOC(=O)c1cc2c([nH]1)c(OC(C)=O)cc1c2ccn1Cc1ccccc1    inactive
N#Cc1c(OCCF)c2ccccc2n2c1nc1ccccc12    inactive
C/C(=N\NC(N)=S)c1ccc(C2CCCCC2)cc1    inactive
CCCCCCCCC[C@@H]1CC(=O)OCC2OC(O[C@H](CCCCCCCCC)CC(=O)OCC3OC(O[C@H](CCCCCCCCC)CC(=O)OCC4OC(O1)C(O)C(O)C4O)C(O)C(O)C3O)C(O)C(O)C2O (some centres not stated)    inactive
COc1ccc(OC2OC(CO)C(O)C(O)C2O)cc1 (configuration not stated)    inactive
CC(C)(C)O/C=C1/C(=O)OC2C[C@@H](O[Si](C)(C)C(C)(C)C)CC12 (some centres not stated)    inactive
CC1(C)C2CCC1C(=O)C(C=O)C2 (configuration not stated)    inactive
Cc1cn(C2CC(COCc3ccccc3)N(CCO[Si](C)(C)C(C)(C)C)O2)c(=O)[nH]c1=O (configuration not stated)    inactive

Prompt line: Fill in: this test's call for COc1ccc(-n2sc3ncccc3c2=O)cc1 is ___
Response line: inactive

Prompt line: Fill in: this test's call for CC12CC1C(c1cccc([N+](=O)[O-])c1)(c1cccc([N+](=O)[O-])c1)N=N2 (configuration not stated) is ___
Response line: inactive

Recorded values, source ChEMBL document CHEMBL1201862.
